targetEntity: Human PD-L1/PD-1 (Homo sapiens)
Construct: TVMV protease cleavage site (C); made in house; host or cells: HEK293T cells
Sequence (Q9NZQ7 with tags, fused parts or gaps): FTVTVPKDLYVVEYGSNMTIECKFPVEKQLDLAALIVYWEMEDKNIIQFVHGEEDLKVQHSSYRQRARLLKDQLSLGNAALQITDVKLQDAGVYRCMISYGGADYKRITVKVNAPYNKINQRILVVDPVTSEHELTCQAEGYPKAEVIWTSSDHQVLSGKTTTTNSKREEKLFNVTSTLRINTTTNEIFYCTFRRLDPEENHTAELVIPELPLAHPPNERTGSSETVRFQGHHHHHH
procedureText: HTRF Human PD-L1/PD-1 binding assay (PD-1-Ig/PD-L1-His)
testConditions: PD-L1-His 10 nM, PD-1-Ig 20 nM; class symbol; read-out: HTRF Human PD-L1/PD-1 Binding Assay IC50 Range
Where a SMILES comes first, the peptide text is derived from it. Bridges are numbered along the chain shown (N, C = ends). [ ]: non-standard residue; d: D form. ξ: configuration not given here. Hyp = O=C(O)[C@@H]1C[C@@H](O)CN1; NMeNle = CCCC[C@H](NC)C(=O)O; NMeA = CN[C@@H](C)C(=O)O; Dap = NC[C@H](N)C(=O)O; ξC = NC(CS)C(=O)O
measuredAttribute: IC50

Problem: Using known records, supply IC50 for CCCC[C@H]1C(=O)N(C)[C@@H](CCCC)C(=O)N[C@@H](CCC(=O)O)C(=O)NC(C(=O)NCC(N)=O)CSCC(=O)N[C@@H](Cc2ccc(O)cc2)C(=O)N(C)[C@@H](C)C(=O)N[C@@H](CC(N)=O)C(=O)N2CCC[C@H]2C(=O)N[C@@H](CC(N)=O)C(=O)N[C@@H](CC(C)C)C(=O)N2C[C@H](O)C[C@H]2C(=O)N[C@@H](Cc2c[nH]c3ccccc23)C(=O)N[C@@H](CN)C(=O)N[C@@H](Cc2c[nH]c3ccccc23)C(=O)N1C (stereo partly shown) [Example 9177] ({CH2CO}-Y[NMeA]NPNL[Hyp]W[Dap]W[NMeNle][NMeNle]E[ξC]G-NH2; thioether N-14)
Result: 100 to 990 nM
